assay: Metabolic stability assessed as rat CYP-mediated metabolism by measuring half life; type: ADME
property-measured: half-life (h)
Write the number in h without appending the unit.

query: What half-life value was documented for this compound, CCC(c1nc2ncc(Cl)cc2[nH]1)[C@H]1CC[C@@H](c2ccnc3ccc(C(F)(F)F)cc32)CC1 (stereo partly specified) ?
result: 1

###

experiment: AUC (0 to 24 hrs) in mouse xenografted with human SKOV3 cells assessed in tumor at 20 mg/kg, po qd for 5 days measured upto 24 hrs after dosing; format: ADME, organism-based; parameters: route oral, dose 20 mg/kg, time 5 day
property-measured: AUC at 120 h
Returns: string containing the number followed by the unit.

query: What AUC at 120 h value was documented for this compound, CCC(c1nc2ncc(Cl)cc2[nH]1)[C@H]1CC[C@@H](c2ccnc3ccc(C(F)(F)F)cc32)CC1 (stereo partly specified) ?
result: 43.6 µM·h
